Reference for the values: PubChem BioAssay AID1159580

protocol text: chemical genetic growth profiling, strain panel (AID 1159580);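 further: tested at 20 µM; growth read once vehicle control cultures reached saturation at 30 °C; 1 = growth at the plate median or of vehicle wells; lower values mean less growth of the strain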
experimental context: S. cerevisiae deletion strains, growth OD, locus YMR307W, strain GAS1, hits give low values
About 2,000 (36%) of roughly 5,500 compounds were called active. Roughly 18% stayed inconclusive and do not appear here. Some of the results follow.
Binarize normalized growth at 1; below is met, at or above is not met.

Consider the following illustrative entries.
molecule=Cc1cc(N=C(N)N=C(N)N)no1 cat=met
molecule=COc1ccc(CC(=O)c2ccc(O)cc2O)cc1 cat=met
molecule=CNC(=O)N(C)c1nnc(C(C)(C)C)s1 cat="not met"
molecule=COC1=C(OC)C(=O)c2ccccc2C1=O cat=met
molecule=COc1cc(OC)c2c(OC)c(-c3ccc4c(c3)OCO4)c(=O)oc2c1 cat=met

normalized growth under 1? Item: COC(=O)c1cc(OC)c(OC)cc1NC(=O)Nc1cc(Cl)cc(Cl)c1 not met

Please indicate whether the reported normalized growth of COC(=O)C(O)[C@H]1C(C)(C)[C@@H](OC(C)=O)[C@@H]2CC3=C4CC(=O)O[C@@H](c5ccoc5)[C@]4(C)CCC3[C@@]1(C)C2=O (some centres undefined) is strictly below 1. met

API: query returns whether the molecule falls strictly under 1 in normalized growth. Query: O=C(NNC(=S)NC1CC2C=CC1C2)c1cccnc1 (centres undefined) not met

###

protocol text: chemical genetic growth profiling, strain panel (AID 1159580);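 further: tested at 20 µM; growth read once vehicle control cultures reached saturation at 30 °C; 1 = growth at the plate median or of vehicle wells; lower values mean less growth of the strain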
experimental context: S. cerevisiae deletion strains, growth OD, locus YEL061C, strain CIN8 (second series)
The whole screen tested about 5,500 compounds, of which about 2,000 (36%) were called active. Roughly 18% stayed inconclusive and do not appear here. Cut-off read from the data, not from the text of the source: active = normalized growth mostly below about 0.91 (no sharp cut-off); inconclusive = no clear call, values can overlap the other calls; inactive = mostly above about 0.92. This is one part of the list.
The reply should be one of these categories: active, inactive

Solved cases below.
compound=NNCc1ccccc1 cat=inactive
compound="CC(=O)O[C@@H]1C2CC[C@@H]3C1(C[C@@H](O)[C@@]1(O)[C@@H](C[C@H](O)C1(C)C)[C@]3(C)O)C[C@@]2(C)O (stereo partly drawn)" cat=inactive
compound=CNC(=O)N(C)c1nnc(C(C)(C)C)s1 cat=inactive
compound=O=c1c(O)cccc2cc(O)c(O)c(O)c12 cat=active
compound=CC(C)=CCC/C(C)=C/CO cat=inactive
compound="CC(=O)NC1C(O)OC(COS(=O)(=O)O)C(OC2OC(C(=O)O)C(OC3OC(CO)C(OC4OC(C(=O)O)C(O)C(O)C4OS(=O)(=O)O)C(OS(=O)(=O)O)C3NS(=O)(=O)O)C(O)C2OS(=O)(=O)O)C1O (stereo not drawn)" cat=inactive

What was the test verdict on CCCCCC/C=C\CCCCCCCc1cccc(O)c1C(=O)O ? inactive

What call does the record list for CNC(C)(C)Cc1ccccc1 ? inactive

###

What normalized growth was measured for each of the following?
protocol text: chemical genetic growth profiling, strain panel (AID 1159580);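 further: tested at 20 µM; growth read once vehicle control cultures reached saturation at 30 °C; 1 = growth at the plate median or of vehicle wells; lower values mean less growth of the strain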
experimental context: S. cerevisiae deletion strains, growth OD, locus YJL128C, strain PBS2, hits give low values
The campaign covered roughly 5,500 compounds. About 2,000 (36%) were called active. Inconclusive results (about 18%) are left out. The list shows a part of the results.
Numbers only.

Worked examples, 2 compounds total:
compound=COC(=O)c1cc([N+](=O)[O-])ccc1S(=O)(=O)Cc1ccc(Cl)cc1 measure_name="normalized growth" measured_value=0.967
compound="C=CCC1C(=O)N(S(=O)(=O)c2ccc(Cl)cc2)N=C1CCC (stereo unspecified)" measure_name="normalized growth" measured_value=0.943

Look up normalized growth for the entries below, preserving their order.
1. Cc1cc(C)c2cc(C(=O)NCCNc3ccc(C(F)(F)F)cn3)[nH]c2c1
2. O=C(Nc1ccc(F)cc1)c1cc(Br)ccc1O
3. O=C(Nc1ccccc1Sc1ccc(C(F)(F)F)cc1[N+](=O)[O-])C(Cl)Cl
4. O=S(=O)(Nc1cc(C(F)(F)F)cc(C(F)(F)F)c1)c1ccc(Cl)s1
5. CC(C)Sc1c(Cl)cccc1NC(=O)Nc1ccccc1
6. COC(=O)c1sccc1S(=O)(=O)Nc1cc(C(F)(F)F)cc(C(F)(F)F)c1

1. 0.961
2. 0.957
3. 0.945
4. 0.906
5. 0.966
6. 0.9
